B1: CDC25A (parent)
chain: QLIDPDENKENEAFEFKKPVRPVS

- Variants of: B1
- TEST_DETAILS: protein stability index of a GFP-peptide fusion (GPS, HEK-293T) (PSI 1-6); higher = more stable;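 further: lentivirally expressed fusions sorted by FACS into six bins by GFP to DsRed ratio, PSI derived from sequencing read proportions per bin multiplied by bin number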
- COND: c terminus: a fixed tail appended
Reported protein stability index is given for each of the following variants.

# VAR, protein stability index
rows = [
    ("A13S", 3.85),
    ("K9T", 4),
    ("F16Y", 3.58),
    ("D4W", 3.45),
    ("K17N", 3.15),
    ("L2I", 2.73),
    ("S24K", 4.72),
    ("D4Y", 3.84),
    ("I3P", 4.3),
    ("D6E", 3.88),
    ("R21H", 3.85),
    ("P5I", 3.07),
    ("P19Y", 3.07),
    ("E7V", 4.11),
    ("D6P", 4.53),
    ("L2P", 5.03),
    ("K18F", 4.33),
    ("P22M", 4.08),
    ("E15H", 3.57),
    ("E10Y", 4.78),
    ("K18G", 4.04),
    ("D6L", 3.23),
    ("E12I", 3.34),
    ("N11K", 4.56),
    ("D6S", 3.74),
    ("L2K", 4.29),
    ("K9Y", 5.01),
    ("E7Q", 3.58),
    ("D6I", 4.22),
    ("V23I", 3.43),
    ("E7T", 4.15),
    ("L2V", 3.29),
    ("V23A", 4.32),
    ("D4N", 3.2),
    ("R21L", 3.8),
    ("N11F", 4.02),
    ("V20L", 2.85),
    ("D4M", 3.94),
    ("E15G", 2.89),
    ("N8Y", 3.59),
    ("K18V", 4.23),
    ("N8E", 3.95),
    ("D4F", 4.09),
    ("F16V", 4.39),
    ("K9E", 4.62),
    ("D4H", 4.23),
]
